The reported measurements were obtained from patent US10550110B2.

Target Desc: ROR gamma ligand-binding domain (LBD) (hRORg) (Homo sapiens)
Test Method Notes: GAL4-RORγ transactivation (luciferase reporter, HG5LN HeLa line)
Protocol Conditions: HG5LN HeLa line with GAL4 DBD fused to ROR gamma LBD, 18 hours incubation
Measured IC50 accompanies every entry in the list below.

compound="CCc1ccc(N(CC(C)C)S(=O)(=O)c2ccc3c(c2)C(O)CCN3[C@@H](C)C2CCOCC2)cc1 (stereo partly shown) [Compound 41]" measurement="100 to 1000 nM"
compound="CCc1ccc(N(CC(C)C)S(=O)(=O)c2ccc3c(c2)C(O)CCN3CC2CCNC(=O)C2)cc1 (stereo not shown)" measurement="> 1000 nM"
compound="CCc1ccc(N(CC(C)C)S(=O)(=O)c2ccc3c(c2)C(O)CCN3Cc2ccncn2)cc1 (stereo not shown)" measurement="< 100 nM"

Readout IC50 for CCc1ccc(N(CC(C)C)S(=O)(=O)c2ccc3c(c2)C(O)CCN3CC2CNC(=O)C2)cc1 (stereo not shown) , test system ROR gamma ligand-binding domain (LBD) (hRORg) (Homo sapiens), was 100 to 1000 nM

----------
Target Desc: ROR gamma ligand-binding domain (LBD) (hRORg) (Homo sapiens, UniProt P51449)
Construct: expressed in transfected cells; host or cells: HG5LN (HeLa line with GAL4-responsive luciferase reporter)
Test Method Notes: GAL4-RORγ transactivation (luciferase reporter, HG5LN HeLa line)
Assay type: cell-based
Protocol Conditions: HG5LN HeLa line with GAL4 DBD fused to ROR gamma LBD, 18 hours incubation
pIC50: −log10 of the molar value.
Endpoint Name: pIC50

compound="CCc1ccc(N(CC(C)C)S(=O)(=O)c2ccc3c(c2)C(O)CCN3C[C@H]2[C@@H]3COC[C@@H]32)cc1 (stereo partly shown)" endpoint_name=pIC50 measurement="> 7.00"

Kindly review the next compound as well.
Readout pIC50 for CCc1ccc(N(CC(C)C)S(=O)(=O)c2ccc3c(c2)C(O)CCN3CC2CCC(C#N)CC2)cc1 (stereo not shown) , test system ROR gamma ligand-binding domain (LBD) (hRORg) (Homo sapiens, UniProt P51449), was < 6.00

----------
Target Desc: ROR gamma ligand-binding domain (LBD) (hRORg) (Homo sapiens, UniProt P51449)
Construct: expressed in transfected cells; host or cells: HG5LN (HeLa line with GAL4-responsive luciferase reporter)
Test Method Notes: GAL4-RORγ transactivation (luciferase reporter, HG5LN HeLa line)
Assay type: cell-based
Protocol Conditions: HG5LN HeLa line with GAL4 DBD fused to ROR gamma LBD, 18 hours incubation
pIC50: −log10 of the molar value.
Endpoint Name: pIC50

Examples with answers:
molecule="CCc1ccc(N(CC(C)C)S(=O)(=O)c2ccc3c(c2)C(O)CCN3CC2CCC(O)CC2)cc1 (single isomer, unassigned) [Compound 42]" endpoint_name=pIC50 measurement="6.00 to 7.00"
molecule="CCc1ccc(N(CC(C)C)S(=O)(=O)c2ccc3c(c2)C(O)CCN3CC2(C)COC2)cc1 (stereo not drawn)" endpoint_name=pIC50 measurement="6.00 to 7.00"

Field pIC50 (entry CCc1ccc(N(CC(C)C)S(=O)(=O)c2ccc3c(c2)C(O)CCN3CC2CCOCC2)cc1 (single isomer, unassigned) [Enantiomer 2] ) reads 6.00 to 7.00

----------
Measured IC50 accompanies every entry in the list below.
Target Desc: ROR gamma ligand-binding domain (LBD) (hRORg) (Homo sapiens)
Sequence (P51449 269-508 limits assumed): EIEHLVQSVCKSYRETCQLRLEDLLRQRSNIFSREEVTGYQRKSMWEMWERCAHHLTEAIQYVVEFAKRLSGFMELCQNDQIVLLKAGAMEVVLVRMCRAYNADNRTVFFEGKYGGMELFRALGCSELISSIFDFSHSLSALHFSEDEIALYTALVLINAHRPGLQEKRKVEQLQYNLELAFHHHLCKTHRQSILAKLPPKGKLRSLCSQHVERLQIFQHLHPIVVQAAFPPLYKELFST
Test Method Notes: GAL4-RORγ transactivation (luciferase reporter, HG5LN HeLa line)
Protocol Conditions: HG5LN HeLa line with GAL4 DBD fused to ROR gamma LBD, 18 hours incubation

Examples with answers:
molecule="CCc1ccc(N(CC(C)C)S(=O)(=O)c2ccc3c(c2)C(O)CCN3CC2CCC(F)(F)CC2)cc1 (stereo not drawn) [Compound 33]" endpoint_name=IC50 measurement="> 1 µM"
molecule="CCc1ccc(N(CC(C)C)S(=O)(=O)c2ccc3c(c2)C(O)CCN3Cc2nonc2C)cc1 (stereo not drawn) [Compound 32]" endpoint_name=IC50 measurement="0.1 to 1 µM"
molecule="CCc1ccc(N(CC(C)C)S(=O)(=O)c2ccc3c(c2)C(O)CCN3CC2CCOCC2)cc1 (racemic) [Compound 2]" endpoint_name=IC50 measurement="< 0.1 µM"
molecule="CCc1ccc(N(CC(C)C)S(=O)(=O)c2ccc3c(c2)C(O)CCN3CC2(F)CCOCC2)cc1 (stereo not drawn) [Compound 15]" endpoint_name=IC50 measurement="0.1 to 1 µM"
molecule="CCc1ccc(N(CC(C)C)S(=O)(=O)c2ccc3c(c2)C(O)CCN3C2CCNC(=O)C2)cc1 (single isomer, unassigned) [Compound 52]" endpoint_name=IC50 measurement="> 1 µM"

Readout IC50 for CCc1ccc(N(CC(C)C)S(=O)(=O)c2ccc3c(c2)C(O)CCN3CC2CCS(=O)(=O)CC2)cc1 (stereo not drawn) [Compound 17] , test system ROR gamma ligand-binding domain (LBD) (hRORg) (Homo sapiens), was > 1 µM

Readout IC50 for CCc1ccc(N(CC(C)C)S(=O)(=O)c2ccc3c(c2)C(=O)CCN3C2CCN(S(C)(=O)=O)CC2)cc1 [Compound 63] , test system ROR gamma ligand-binding domain (LBD) (hRORg) (Homo sapiens), was > 1 µM

Readout IC50 for CCc1ccc(N(CC(C)C)S(=O)(=O)c2ccc3c(c2)C(O)CCN3C2CCS(=O)(=O)CC2)cc1 (stereo not drawn) [Compound 27] , test system ROR gamma ligand-binding domain (LBD) (hRORg) (Homo sapiens), was 0.1 to 1 µM

Readout IC50 for CCc1ccc(N(CC(C)C)S(=O)(=O)c2ccc3c(c2)C(O)CCN3[C@H]2CC[C@H](C(=O)OC)CC2)cc1 (stereo partly drawn) [Compound 48] , test system ROR gamma ligand-binding domain (LBD) (hRORg) (Homo sapiens), was > 1 µM

----------
Target Desc: ROR gamma ligand-binding domain (LBD) (hRORg) (Homo sapiens, UniProt P51449)
Test Method Notes: GAL4-RORγ transactivation (luciferase reporter, HG5LN HeLa line)
Protocol Conditions: HG5LN HeLa line with GAL4 DBD fused to ROR gamma LBD, 18 hours incubation
pIC50: −log10 of the molar value.
Endpoint Name: pIC50

Examples with answers:
compound="CCc1ccc(N(CC(C)C)S(=O)(=O)c2ccc3c(c2)C(O)CCN3[C@H](C)C2CCOCC2)cc1 (stereo partly drawn) [Compound 38]" measurement="< 6.00"
compound="CCc1ccc(N(CC(C)C)S(=O)(=O)c2ccc3c(c2)C(O)CCN3C2CCN(C(=O)OC(C)(C)C)CC2)cc1 (stereo not drawn)" measurement="< 6.00"
compound="CCc1ccc(N(CC(C)C)S(=O)(=O)c2ccc3c(c2)C(O)CCN3CC2CCS(=O)(=O)C2)cc1 (stereo not drawn)" measurement="6.00 to 7.00"
compound="CCc1ccc(N(CC(C)C)S(=O)(=O)c2ccc3c(c2)C(O)CCN3CC2CNC(=O)O2)cc1 (stereo not drawn)" measurement="6.00 to 7.00"
compound="CCc1ccc(N(CC(C)C)S(=O)(=O)c2ccc3c(c2)C(O)CCN3Cc2ccnc(F)c2)cc1 (stereo not drawn)" measurement="> 7.00"
compound="CCc1ccc(N(CC(C)C)S(=O)(=O)c2ccc3c(c2)C(O)CCN3CC2CCN(C(=O)OC)C2)cc1 (stereo not drawn)" measurement="< 6.00"
compound="COc1ccc(N(C(C)C)S(=O)(=O)c2ccc3c(c2)C(O)CCN3Cc2cn[nH]c2)c(C)c1 (stereo not drawn)" measurement="< 6.00"
compound="CCc1ccc(N(CC(C)C)S(=O)(=O)c2ccc3c(c2)C(O)CCN3C2CCN(C(C)=O)CC2)cc1 (stereo not drawn)" measurement="< 6.00"

Kindly review the next compound as well.
Readout pIC50 for CCc1ccc(N(CC(C)C)S(=O)(=O)c2ccc3c(c2)C(O)CCN3CC2CCC(O)CC2)cc1 (single isomer, unassigned) [Compound 43] , test system ROR gamma ligand-binding domain (LBD) (hRORg) (Homo sapiens, UniProt P51449), was 6.00 to 7.00

----------
Target Desc: ROR gamma ligand-binding domain (LBD) (hRORg) (Homo sapiens)
Test Method Notes: GAL4-RORγ transactivation (luciferase reporter, HG5LN HeLa line)
Protocol Conditions: HG5LN HeLa line with GAL4 DBD fused to ROR gamma LBD, 18 hours incubation
pIC50: −log10 of the molar value.
Endpoint Name: pIC50

Examples with answers:
compound="Cc1cc(C)c(N(CC(C)C)S(=O)(=O)c2ccc3c(c2)C(O)CCN3CC2CCOCC2)cn1 (stereo not shown) [Compound 66]" measurement="< 6.00"
compound="CCc1ccc(N(CC(C)C)S(=O)(=O)c2ccc3c(c2)C(=O)CCN3CC2CCN(C(=O)OC(C)(C)C)CC2)cc1 [Compound 5]" measurement="< 6.00"
compound="CCc1ccc(N(CC(C)C)S(=O)(=O)c2ccc3c(c2)C(=O)CCN3CC2CCC(=O)N2)cc1 (stereo not shown) [Compound 3]" measurement="< 6.00"
compound="CCc1ccc(N(CC(C)C)S(=O)(=O)c2ccc3c(c2)C(O)CCN3CC2(C)CCOCC2)cc1 (stereo not shown) [Compound 14]" measurement="> 7.00"
compound="CCc1ccc(N(CC(C)C)S(=O)(=O)c2ccc3c(c2)C(O)CCN3CC2CC3(COC3)C2)cc1 (stereo not shown) [Compound 44]" measurement="6.00 to 7.00"

Field pIC50 (entry CCc1ccc(N(CC(C)C)S(=O)(=O)c2ccc3c(c2)C(O)CCN3CC2CCOCC2)cc1 (single isomer, unassigned) [Enantiomer 1] ) reads > 7.00

Field pIC50 (entry CCc1ccc(N(CC(C)C)S(=O)(=O)c2ccc3c(c2)C(=O)CCN3Cc2ccncc2)cc1 [Compound 4] ) reads > 7.00
